Where do the numbers come from? From patent US20150175530A1.

Tested on: bacterial isolates (clinical isolates and ATCC quality control strains)
assay.method.text: Minimum Inhibitory Concentrations (MICs) by broth microdilution (CLSI susceptibility testing)
Type: cell-based
details: Pseudomonas aeruginosa, read-out: Minimum Inhibitory Concentrations (MICs) APAE002
result.type: MIC

Consider the worked cases shown below.
[
  {
    "compound": "C[C@@H](N)[C@H](NC(=O)c1ccc(C#CC#CC(O)CO)cc1)C(=O)NO (some centres unmarked)",
    "MIC": "< 1 µg/mL"
  },
  {
    "compound": "CC(C)(N)[C@H](NC(=O)c1ccc(C#CC#CC[C@@H](O)CO)cc1)C(=O)NO",
    "MIC": "1 to 8 µg/mL"
  },
  {
    "compound": "CCNC(C)(C)[C@H](NC(=O)c1ccc(C#CC#CCCO)cc1)C(=O)NO",
    "MIC": "< 1 µg/mL"
  },
  {
    "compound": "CC(C)(N)[C@H](NC(=O)c1ccc(C#CC#CCO)cc1)C(=O)NO",
    "MIC": "< 1 µg/mL"
  },
  {
    "compound": "CC(C)(N)[C@H](NC(=O)c1ccc(C#CC#CC(O)CO)cc1)C(=O)NO (some centres unmarked)",
    "MIC": "1 to 8 µg/mL"
  },
  {
    "compound": "CC(C)(N)[C@H](NC(=O)c1ccc(C#CC#CC[C@H](O)CO)cc1)C(=O)NO",
    "MIC": "< 1 µg/mL"
  },
  {
    "compound": "CNC(C)(C)[C@H](NC(=O)c1ccc(C#CC#CCCO)cc1)C(=O)NO",
    "MIC": "< 1 µg/mL"
  }
]

Value (MIC, bacterial isolates (clinical isolates and ATCC quality control strains)) for record COC(C#CC#Cc1ccc(C(=O)N[C@H](C(=O)NO)C(C)(C)N)cc1)CO (some centres unmarked) = < 1 µg/mL

----------
Tested on: 3 P. aeruginosa strains (APAE001, APAE002, APAE006)
assay.method.text: Protein binding: fold change in MIC in the presence of 2% HSA and 0.05% AGP, Geomean of 3 strains
Assay type: cell-based, Pseudomonas aeruginosa
details: MIC in the presence of 2% HSA and 0.05% AGP divided by MIC in the absence; Geomean of 3 P. aeruginosa strains (APAE001, APAE002, APAE006)
# reported Protein Binding PB (Geomean of fold change in MIC); entries follow

[
  {
    "compound": "CC(C)(N)[C@H](NC(=O)c1ccc(C#CC#CCCO)cc1)C(=O)NO [Compound 7]",
    "result": 2.5
  }
]

response.value for CC(C)(N)[C@H](NC(=O)c1ccc(C#CC#C[C@H]2CC[C@@](O)(CO)CC2)cc1)C(=O)NO [Compound 33A] (field: Protein Binding PB (Geomean of fold change in MIC)) = 2.6

Noted for CC(C)(N)[C@H](NC(=O)c1ccc(C#CC#CC2C[C@H](O)[C@@H]2CO)cc1)C(=O)NO (single isomer, unassigned) [Compound 30A] : its Protein Binding PB (Geomean of fold change in MIC) reads 2.5

Lab note: measured Protein Binding PB (Geomean of fold change in MIC) of CN[C@H](C)[C@H](NC(=O)c1ccc(C#CC#C[C@H](C)O)cc1)C(=O)NO [Compound 49] was 2.0

The compound CC(C#CC#Cc1ccc(C(=O)N[C@H](C(=O)NO)C(C)(C)N)cc1)CO (some centres unmarked) [Compound 39] showed Protein Binding PB (Geomean of fold change in MIC) equal to 2.8

Protein Binding PB (Geomean of fold change in MIC) for CC(C)(NCc1c[nH]cn1)[C@H](NC(=O)c1ccc(C#CC#CCCO)cc1)C(=O)NO [Compound 13] is 1.4

// recorded Protein Binding PB (Geomean of fold change in MIC) for CC(C)(N)[C@H](NC(=O)c1ccc(C#CC#CC(CO)CO)cc1)C(=O)NO [Compound 18] : 1.6

// recorded Protein Binding PB (Geomean of fold change in MIC) for CC(C)(N)[C@H](NC(=O)c1ccc(C#C/C=C/CCO)cc1)C(=O)NO [Compound 55] : 2.0
